Hey, just so you know, these numbers are from paper PMC11882969.

target: hCB1 (Homo sapiens); test: bioSensAll ebBRET signaling profiling, hCB1; format: cell-based; set-up: host or cells: HEK293SL cells, transient PEI transfection; conditions: Barr2+GRK2 biosensor; Log [Compound] (M) -12.3979
Recorded Barr2+GRK2 hCB1 response by entry
Outcome Measure: Barr2+GRK2 hCB1 response

1. Cc1c(C(=O)OCC2CSc3ccccc3O2)cnn1Cc1ccccc1 (stereo not drawn) = -30.0093
2. Cn1nc(-c2nnc(C(C)(C)Oc3ccc(C(F)(F)F)cc3)o2)c2ccccc2c1=O = -30.0093
3. Cc1nc(CC2CC2)oc1-c1nc(Cc2cc3c(cc2Br)OCO3)no1 = -32.5619
4. Cn1nc(-c2nnc(C(C)(C)Oc3ccc(Cl)cc3)o2)c2ccccc2c1=O = -55.5351
5. Brc1cc2c(cc1Cc1noc(-c3cnn(CC4CC4)c3)n1)OCO2 = -47.8774
6. Cc1nn(Cc2ccc(Cl)cc2)c(C)c1C(=O)OCC1CSc2ccccc2O1 (stereo not drawn) = -7.993

---

// Barr2+GRK2 hCB1 response lookup, one value per entry
biological target: hCB1 (Homo sapiens); test: bioSensAll ebBRET signaling profiling, hCB1; type: cell-based; design: host or cells: HEK293SL cells, transient PEI transfection; conditions: Barr2+GRK2 biosensor; Log [Compound] (M) -10.0969
Outcome Measure: Barr2+GRK2 hCB1 response

1. Cc1nc(CC2CC2)oc1-c1nc(Cc2cc3c(cc2Br)OCO3)no1 [‘7019] = -17.8845
2. Cn1nc(-c2nnc(C(C)(C)Oc3ccc(Cl)cc3)o2)c2ccccc2c1=O [‘0450] = -52.0253
3. Cc1c(C(=O)OCC2CSc3ccccc3O2)cnn1Cc1ccccc1 (stereo not drawn) [‘7800] = -61.2784
4. Cn1nc(-c2nnc(C(C)(C)Oc3ccc(C(F)(F)F)cc3)o2)c2ccccc2c1=O [‘2153] = -46.6011
5. Cc1nn(Cc2ccc(Cl)cc2)c(C)c1C(=O)OCC1CSc2ccccc2O1 (stereo not drawn) [‘5463] = -52.3444
6. Brc1cc2c(cc1Cc1noc(-c3cnn(CC4CC4)c3)n1)OCO2 [‘5424] = -56.8114

---

target: hCB1 (Homo sapiens, UniProt P21554); test: bioSensAll ebBRET signaling profiling, hCB1; assay type: cell-based; parameters: host or cells: HEK293SL cells, transient PEI transfection; conditions: Barr2+GRK2 biosensor; Log [Compound] (M) -9.15521
Sequence (P21554 whole entry): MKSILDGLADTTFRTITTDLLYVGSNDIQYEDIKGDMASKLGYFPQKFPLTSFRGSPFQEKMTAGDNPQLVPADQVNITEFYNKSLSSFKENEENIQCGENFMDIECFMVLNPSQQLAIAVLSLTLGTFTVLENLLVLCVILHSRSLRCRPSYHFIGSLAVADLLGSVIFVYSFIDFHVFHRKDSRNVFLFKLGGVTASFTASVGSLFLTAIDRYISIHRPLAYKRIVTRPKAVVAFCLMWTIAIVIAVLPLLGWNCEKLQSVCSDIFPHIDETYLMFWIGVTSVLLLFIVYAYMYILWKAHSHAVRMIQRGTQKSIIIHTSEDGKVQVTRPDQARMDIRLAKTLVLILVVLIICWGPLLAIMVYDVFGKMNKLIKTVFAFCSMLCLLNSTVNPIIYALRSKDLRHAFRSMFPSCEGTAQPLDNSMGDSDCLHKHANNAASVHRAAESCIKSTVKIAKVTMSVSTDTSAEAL
Entries and their measured Barr2+GRK2 hCB1 response follow.
Outcome Measure: Barr2+GRK2 hCB1 response

1) Cc1nc(CC2CC2)oc1-c1nc(Cc2cc3c(cc2Br)OCO3)no1 = -44.3676
2) Brc1cc2c(cc1Cc1noc(-c3cnn(CC4CC4)c3)n1)OCO2 = -41.4959
3) Cc1nn(Cc2ccc(Cl)cc2)c(C)c1C(=O)OCC1CSc2ccccc2O1 (stereo not drawn) = -53.6207
4) Cn1nc(-c2nnc(C(C)(C)Oc3ccc(Cl)cc3)o2)c2ccccc2c1=O = -35.1145
5) Cc1c(C(=O)OCC2CSc3ccccc3O2)cnn1Cc1ccccc1 (stereo not drawn) = -45.9629
6) Cn1nc(-c2nnc(C(C)(C)Oc3ccc(C(F)(F)F)cc3)o2)c2ccccc2c1=O = -27.1376
